Source: ChEMBL document CHEMBL3885881

Please respond with reported ERYTHROCYTE COUNT for every item in the list.
- Organism: Rattus norvegicus
- protocol-description: DrugMatrix - Regimen: Daily Repeat
- Assay type: toxicity, organism-based, Sprague-Dawley
- Parameters: regimen Daily Repeat, gender Male, age 6-8 weeks
- measurement-parameters: in vivo, po, 0 mg/kg, 120 h, tissue Blood, route oral GAVAGE, dose level Control, time 5 day, […]
Give the quantity in x10E6/uL, number only.

Form: compound = CS(=O)(=O)Nc1ccc([N+](=O)[O-])cc1Oc1ccccc1 [NIMESULIDE] ; ERYTHROCYTE COUNT = 5.31

Form: compound = O=c1c(-c2ccc(O)cc2)coc2cc(O)cc(O)c12 [GENISTEIN] ; ERYTHROCYTE COUNT = 5.36

Form: compound = CC(C)c1c(C(=O)Nc2ccccc2)c(-c2ccccc2)c(-c2ccc(F)cc2)n1CC[C@@H](O)C[C@@H](O)CC(=O)O [ATORVASTATIN] ; ERYTHROCYTE COUNT = 5.36

Form: compound = CCc1ccc(CCOc2ccc(CC3SC(=O)NC3=O)cc2)nc1 (configuration not stated) [PIOGLITAZONE] ; ERYTHROCYTE COUNT = 5.5

Form: compound = CCCCC(=O)N(Cc1ccc(-c2ccccc2-c2nnn[nH]2)cc1)[C@H](C(=O)O)C(C)C ; ERYTHROCYTE COUNT = 5.61

Form: compound = CC(=O)Oc1ccccc1C(=O)O [ASPIRIN] ; ERYTHROCYTE COUNT = 5.51

Form: compound = c1ccoc1 [FURAN] ; ERYTHROCYTE COUNT = 6.86

====

- Species on record: Rattus norvegicus
- protocol-description: DrugMatrix - Regimen: Daily Repeat
- Assay type: toxicity, organism-based, Sprague-Dawley
- Set-up: regimen Daily Repeat, gender Male, age 6-8 weeks
- measurement-parameters: in vivo, po, 0 mg/kg, 72 h, tissue Blood, route oral GAVAGE, dose level Control, time 3 day, vehicle .5 % CMC
Decide using ABSOLUTE EOSINOPHIL: a value greater than or equal to 100 CELLS/uL is Met, a smaller one is Not met.

stdin: For this compound, is measured ABSOLUTE EOSINOPHIL 100 CELLS/uL or higher? COc1ccccc1[N+](=O)[O-] [2-NITROANISOLE]
stdout: Met

stdin: For this compound, is measured ABSOLUTE EOSINOPHIL 100 CELLS/uL or higher? CCC1=C(C)CN(C(=O)NCCc2ccc(S(=O)(=O)NC(=O)N[C@H]3CC[C@H](C)CC3)cc2)C1=O [GLIMEPIRIDE]
stdout: Not met

stdin: For this compound, is measured ABSOLUTE EOSINOPHIL 100 CELLS/uL or higher? COc1cc(OC)c(C(=O)CCCN2CCCC2)c(OC)c1 [BUFLOMEDIL]
stdout: Not met

stdin: For this compound, is measured ABSOLUTE EOSINOPHIL 100 CELLS/uL or higher? C[C@H]1[C@H](NC(=O)/C(=N\OC(C)(C)C(=O)O)c2csc(N)n2)C(=O)N1S(=O)(=O)O [AZTREONAM]
stdout: Met

stdin: For this compound, is measured ABSOLUTE EOSINOPHIL 100 CELLS/uL or higher? C[C@@](Cc1ccc(O)c(O)c1)(NN)C(=O)O.O [CARBIDOPA]
stdout: Met

stdin: For this compound, is measured ABSOLUTE EOSINOPHIL 100 CELLS/uL or higher? NC(=O)N1c2ccccc2CC(=O)c2ccccc21 [OXCARBAZEPINE]
stdout: Not met

stdin: For this compound, is measured ABSOLUTE EOSINOPHIL 100 CELLS/uL or higher? CN(C)C(=O)C(CCN1CCC(O)(c2ccc(Cl)cc2)CC1)(c1ccccc1)c1ccccc1 [LOPERAMIDE]
stdout: Not met

stdin: For this compound, is measured ABSOLUTE EOSINOPHIL 100 CELLS/uL or higher? CCOc1nc2cccc(C(=O)O)c2n1Cc1ccc(-c2ccccc2-c2nnn[nH]2)cc1
stdout: Not met

stdin: For this compound, is measured ABSOLUTE EOSINOPHIL 100 CELLS/uL or higher? C[C@@H]1O[C@@H](O[C@H]2C[C@@H](O)[C@]3(CO)[C@H]4[C@H](O)C[C@]5(C)[C@@H](C6=CC(=O)OC6)CC[C@]5(O)[C@@H]4CC[C@]3(O)C2)[C@H](O)[C@H](O)[C@H]1O [OUABAIN]
stdout: Met

stdin: For this compound, is measured ABSOLUTE EOSINOPHIL 100 CELLS/uL or higher? C[C@]12CC[C@@H]3c4ccc(O)cc4CC[C@H]3[C@@H]1C[C@@H](O)[C@@H]2O [ESTRIOL]
stdout: Met
